// provenance: paper PMC5540273

- Tested on: CDK3
- STATED_CONDITIONS: concentration: 1 μM, replicates: in singlicate; n = 1

[
  {
    "MOLECULE": "CCC(=O)c1c(-c2ccccc2)c2cc(Cl)ccc2c(=O)n1Cc1cc(C(=O)NC2CC2)n(C)n1",
    "%Inh / %": 0
  },
  {
    "MOLECULE": "COc1cc(Nc2nccc(N3CCC(NC(=O)C4COc5ccccc5O4)C3)n2)cc(OC)c1OC (centres unmarked)",
    "%Inh / %": 0
  },
  {
    "MOLECULE": "CCc1ccc(-c2ccc3c(c2)-c2nn(C)cc2S(=O)(=O)N3C)cc1",
    "%Inh / %": 0
  },
  {
    "MOLECULE": "COc1cc(OC)cc(-c2cc3cnc(N)nc3nc2NC(=O)NC(C)(C)C)c1",
    "%Inh / %": 14
  },
  {
    "MOLECULE": "COc1cccc(C2=C(N(C)c3ccccc3)C(=O)NC2=O)c1",
    "%Inh / %": 12
  },
  {
    "MOLECULE": "COc1cc2ncn(-c3cc(OCCCc4ccccc4)c(C(N)=O)s3)c2cc1OC",
    "%Inh / %": 1
  },
  {
    "MOLECULE": "CCC(=O)c1c(-c2ccccc2)c2cc(Cl)ccc2c(=O)n1Cc1cc(S(C)(=O)=O)n(CC(F)F)n1",
    "%Inh / %": 0
  },
  {
    "MOLECULE": "COc1cc2nccc(Nc3ccc(OCc4ccc(NC(C)=O)cc4)cc3)c2cc1OC.Cl",
    "%Inh / %": 4
  }
]

----------
- Tested on: PIKFYVE;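 note: kd values determined as follow-up on hits from a single-replicate KINOMEscan panel screen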
pKd: −log10 of the molar value.

[
  {
    "CPD_SMILES": "Cc1cccc(-c2nc(Nc3ccc4c(cnn4C)c3)c3ccccc3n2)n1",
    "pKd": 6.42
  }
]

----------
- Tested on: FGFR3
- STATED_CONDITIONS: concentration: 1 μM, replicates: in singlicate; n = 1
Below, each entry is listed alongside its reported %Inh.
READOUT: %Inh

[
  {
    "COMPOUND": "COC(=O)c1c(-c2ccccc2)c2cc(Br)ccc2c(=O)n1Cc1ccc(S(C)(=O)=O)cc1",
    "ASSAY_RESULT": "2%"
  },
  {
    "COMPOUND": "Nc1n[nH]c2ncc(-c3ccccc3)cc12 [SB-517081]",
    "ASSAY_RESULT": "2%"
  },
  {
    "COMPOUND": "COc1cc(OC)cc(-c2cc3cnc(N)nc3nc2NC(=O)NC(C)(C)C)c1",
    "ASSAY_RESULT": "96.3%"
  },
  {
    "COMPOUND": "Cc1ccc(-c2ccc3c(ccc4sc5c(c43)NC[C@@H](C)N=C5N(C)C)n2)cn1",
    "ASSAY_RESULT": "0%"
  },
  {
    "COMPOUND": "COc1ccc(CNC(=O)NC2CCN(c3ccnc(Nc4ccc(F)cc4)n3)C2)cc1 (centres unmarked) [GSK1379706]",
    "ASSAY_RESULT": "22%"
  }
]

----------
- System: BMX
- STATED_CONDITIONS: concentration: 1 μM, replicates: in singlicate; n = 1
READOUT: %Inh

[
  {
    "COMPOUND": "Nc1n[nH]c2ncc(-c3ccccc3)cc12",
    "ASSAY_RESULT": "0%"
  },
  {
    "COMPOUND": "COC(=O)c1c(-c2ccccc2)c2cc(C)ccc2c(=O)n1Cc1ccccc1",
    "ASSAY_RESULT": "19%"
  },
  {
    "COMPOUND": "CN1C(=O)C(Nc2ccccc2)=C(c2ccccc2)C1=O",
    "ASSAY_RESULT": "0%"
  },
  {
    "COMPOUND": "CCS(=O)c1ccc(-c2coc3ccc(-c4nnc(C)o4)cc23)cc1 (centres unmarked)",
    "ASSAY_RESULT": "18%"
  },
  {
    "COMPOUND": "COc1cccc(C2=C(Nc3cccc(C(=O)O)c3)C(=O)NC2=O)c1",
    "ASSAY_RESULT": "14%"
  },
  {
    "COMPOUND": "COc1ccc(CNC(=O)NC2CCN(c3ccnc(Nc4ccc(F)cc4)n3)C2)cc1 (centres unmarked)",
    "ASSAY_RESULT": "26%"
  },
  {
    "COMPOUND": "CN1C(=O)C(Nc2cc(Cl)c(O)c(Cl)c2)=C(c2ccc(Cl)cc2)C1=O",
    "ASSAY_RESULT": "13%"
  },
  {
    "COMPOUND": "Cc1ccc(Oc2ccc(Nc3ncnc4cc[nH]c34)cc2C)cn1",
    "ASSAY_RESULT": "20%"
  },
  {
    "COMPOUND": "COc1cc(Nc2nccc(N3CCC(NC(=O)C4COc5ccccc5O4)C3)n2)cc(OC)c1OC (centres unmarked)",
    "ASSAY_RESULT": "16%"
  },
  {
    "COMPOUND": "Nc1ncnc2c1ncn2-c1cccc2ccccc12",
    "ASSAY_RESULT": "0%"
  },
  {
    "COMPOUND": "Cc1cccc(-c2nc(Nc3ccc4c(cnn4C)c3)c3ccccc3n2)n1",
    "ASSAY_RESULT": "7%"
  },
  {
    "COMPOUND": "Cc1cccc(-c2cc(-c3c[nH]nc3-c3ccccn3)ccn2)c1",
    "ASSAY_RESULT": "0%"
  },
  {
    "COMPOUND": "CCn1c(-c2ccoc2)nc2cnccc21",
    "ASSAY_RESULT": "0%"
  },
  {
    "COMPOUND": "Nc1n[nH]c2nnc(-c3ccccc3)c(-c3ccccc3)c12",
    "ASSAY_RESULT": "22%"
  },
  {
    "COMPOUND": "Nc1ncnc2c1ncn2-c1ccc(Cl)cc1",
    "ASSAY_RESULT": "20%"
  },
  {
    "COMPOUND": "COc1cc2ncn(-c3cc(OCc4ccncc4)c(C(N)=O)s3)c2cc1OC",
    "ASSAY_RESULT": "2%"
  },
  {
    "COMPOUND": "O=C(NCCNc1ccnc(Nc2ccc(F)cc2)n1)Nc1ccc2c(c1)OCO2",
    "ASSAY_RESULT": "7%"
  },
  {
    "COMPOUND": "COc1cccc(-n2cnc3c(N)ncnc32)c1",
    "ASSAY_RESULT": "0%"
  },
  {
    "COMPOUND": "CCC(=O)c1c(-c2ccccc2)c2cc(Cl)ccc2c(=O)n1Cc1cc(S(C)(=O)=O)n(CC(F)F)n1",
    "ASSAY_RESULT": "0%"
  },
  {
    "COMPOUND": "O=C(Nc1n[nH]c2nc(-c3ccccc3)c(Cl)cc12)C1CC1",
    "ASSAY_RESULT": "1%"
  },
  {
    "COMPOUND": "CCC(=O)c1c(-c2ccccc2)c2cc(Cl)ccc2c(=O)n1Cc1cc(C(=O)NC2CC2)n(C)n1",
    "ASSAY_RESULT": "4%"
  },
  {
    "COMPOUND": "Cc1nnc(-c2ccc(C)c(-c3ccc(C(=O)O)cc3)c2)o1",
    "ASSAY_RESULT": "0%"
  },
  {
    "COMPOUND": "COc1ccc(-c2coc3ccc(-c4nnc(SCc5cccc(C#N)c5)o4)cc23)cc1",
    "ASSAY_RESULT": "28%"
  },
  {
    "COMPOUND": "Nc1nc(N)c2nc(-c3ccccc3)[nH]c2n1",
    "ASSAY_RESULT": "0%"
  },
  {
    "COMPOUND": "CCCNC(=O)Nc1ccc(Oc2ncnc3ccn(C)c23)cc1",
    "ASSAY_RESULT": "0%"
  },
  {
    "COMPOUND": "Cl.NS(=O)(=O)c1cccc(Nc2cc(-c3ccc(F)cc3)n[nH]2)c1",
    "ASSAY_RESULT": "0%"
  },
  {
    "COMPOUND": "CCS(=O)(=O)c1ccc(OC)c(Nc2ncc(-c3ccc(F)cc3)o2)c1.Cl",
    "ASSAY_RESULT": "0%"
  },
  {
    "COMPOUND": "CC(C)(C)c1ccc(C(=O)Nc2cn3cc(-c4ccccc4)ccc3n2)cc1",
    "ASSAY_RESULT": "13%"
  },
  {
    "COMPOUND": "CCc1ccc(-c2ccc3c(c2)-c2nn(C)cc2S(=O)(=O)N3C)cc1",
    "ASSAY_RESULT": "0%"
  },
  {
    "COMPOUND": "Fc1cccc(CSc2nnc(-c3ccc4c(c3)CCO4)o2)c1",
    "ASSAY_RESULT": "0%"
  },
  {
    "COMPOUND": "O=C(Nc1ccc2c(c1)OCO2)NC1CCN(c2ccnc(NCc3ccc(F)cc3)n2)CC1",
    "ASSAY_RESULT": "3%"
  },
  {
    "COMPOUND": "CCn1c(-c2nonc2N)nc2ccccc21",
    "ASSAY_RESULT": "0%"
  },
  {
    "COMPOUND": "COc1ccc(Nc2nccc(N3CCC(NS(=O)(=O)c4ccc(NC(C)=O)cc4)C3)n2)cc1 (centres unmarked)",
    "ASSAY_RESULT": "12%"
  },
  {
    "COMPOUND": "Cc1cc(Nc2nc(-c3cccc(C)n3)nc3ccccc23)ccn1",
    "ASSAY_RESULT": "0%"
  },
  {
    "COMPOUND": "O=c1cc(N2CCOCC2)nc2n(Cc3ccc(F)c(Cl)c3)ccn12",
    "ASSAY_RESULT": "5%"
  },
  {
    "COMPOUND": "COc1cc(OC)cc(-c2cc3cnc(N)nc3nc2NC(=O)NC(C)(C)C)c1",
    "ASSAY_RESULT": "0%"
  },
  {
    "COMPOUND": "Nc1nc(-c2ccccc2F)c(-c2ccnc3ccccc23)s1",
    "ASSAY_RESULT": "0%"
  },
  {
    "COMPOUND": "FC(F)(F)c1ccc(-c2ncn(CCCN3CCOCC3)c2-c2ccncc2)cc1",
    "ASSAY_RESULT": "1%"
  }
]
